In this section, each of the molecules is paired with its reported melting point.

C#CC(C)N1C(=O)c2ccccc2C1=O (stereo not given) = 104 to 106 °C
Cc1ccc(S(=O)(=O)N2[C@@H](CCc3nc(C4CC4)no3)CC[C@H]2c2ccc(F)cc2)cc1 (racemic) = 129 °C
O=[N+]([O-])c1ccc(Oc2ccc(C(F)(F)F)cc2Cl)cc1[N+](=O)[O-] = 80 to 81 °C
O=C(CN1CCC(Cc2ccccc2)CC1)Nc1ccc2c(c1)NC(=O)CO2 = 220 to 222 °C
CCC(=O)N1CCC(NC(=O)NC2CCCCCC2)CC1 = 164 to 172 °C
Cc1ccccc1CC1(CO)CCN(C(=O)OC(C)(C)C)CC1 = 104 to 106 °C
CC1C(=O)c2c(cc(OCC(=O)O)c(Cl)c2Cl)C1C (stereo not given) = 174 to 176 °C
CCOCC1(C)CCCOc2cc(C#Cc3ccc(C(=O)O)cc3)ccc21 (stereo not given) = 170 to 171 °C

Turning to the following molecule.
Query: Given the molecule CCOc1ccc2c(c1)n(C1CCOCC1)c(=O)n2S(=O)(=O)c1ccc(C(=O)O)cc1OC , what is its reported melting point?
Reply: 255 °C

###

ASSAY_ENDPOINT: melting point (°C)

Cc1cc(C)c2cccc(OCc3c(Cl)ccc(S(=O)(=O)N4CCC[C@H]4C(=O)N4CCN(C(=O)c5cccc(C(N)=NO)c5)CC4)c3Cl)c2n1 = 160
CC(C)(C)c1cccc(S(=O)(=O)Nc2cc(C(F)(F)F)ccc2I)c1 = 134
CC(C)(C)OC(=O)N1CCC(Nc2nccc(-c3c(-c4ccc(F)cc4)nc4occn34)n2)CC1 = 175

###

In this section, each of the compounds is paired with its reported melting point.

Recorded results for 3 compounds are shown here.
Brc1ccc2c(c1)C(c1ccccn1)=NCc1nnc(Br)n1-2 = 236 to 238 °C
COC(=O)c1c(C)noc1C(=O)NC(C)C = 64 to 66 °C
CNc1c(S(=O)(=O)C(F)(F)F)c(-c2ncon2)nn1-c1c(Cl)cc(C(F)(F)F)cc1Cl = 156 to 158 °C

Query: Given the compound O=C1Oc2cc(O)ccc2CN1C1CCCCC1 , what is its reported melting point?
Reply: 193 to 196 °C

Query: Please do the same for CC(C)(C)c1ccc2c(c1)C=C(C(=O)O)C(C(F)(F)F)O2 (configuration not stated) as well.
Reply: 171 to 173 °C

###

ASSAY_ENDPOINT: melting point

Recorded results for 5 compounds are shown here.
CCNC(=O)c1ccc(-n2nnc(C(=O)NC3CC3)c2CO)c(O)c1 = 185 °C
On1c(-c2ccccc2)csc1=S = 149 to 151 °C
Cc1cc(-c2cc(C(F)(F)F)nn2-c2ccc(S(N)(=O)=O)cc2)ccc1-c1cocn1 = 112 to 114 °C
CSc1ccc2ncccc2c1N = 88.5 to 90.5 °C
O=c1c2c(Cc3ccc(OC(F)(F)F)cc3)n[nH]c2c2cccnc2n1-c1ccccc1 = 216 to 218 °C

Query: Given the compound O=C(O)CCC(=O)c1ccc(-c2ccc(Cl)cc2)cc1 , what is its reported melting point?
Reply: 184 to 185 °C

Query: Please do the same for Cn1c(C(=O)NC(CF)Cc2ccccc2)cc2c(O)cccc21 (configuration not stated) as well.
Reply: 161 to 162 °C

###

ASSAY_ENDPOINT: melting point

Recorded results for 4 compounds are shown here.
Cc1cc(NCCO)n2ncc([N+](=O)[O-])c2n1 = 231 °C
CCOC(=O)CC[C@H](NC(=O)c1ccc(CCc2cnc3[nH]c(NC(=O)C(C)(C)C)nc(=O)c3c2)s1)C(=O)OCC = 57 to 87 °C
CC1NC(=O)NN=C1c1ccccn1 (stereo not drawn) = 212 to 214 °C
CC(=O)NC[C@H]1CN(c2ccc(C3=CCN(C(=O)COC(C)=O)CC3)c(F)c2)C(=O)O1 = 188 to 191 °C

Query: Given the compound Cc1cc([N+](=O)[O-])ccc1OC1CCN(C(=O)OC(C)(C)C)CC1 , what is its reported melting point?
Reply: 82 to 83 °C

Query: Please do the same for CC(CO)CCn1c(C(=O)NCc2cc(C(F)(F)F)cc(C(F)(F)F)c2)c(-c2ccccc2)c2cccnc2c1=O (racemic) as well.
Reply: 213 to 214 °C

Query: Please do the same for CCCCCc1ccc(CCc2ccc(-c3ccc(CC)cc3F)cc2)cc1 as well.
Reply: 40 °C

Query: Please do the same for Cc1c(NC(=O)Nc2ccc(-n3nc(C(F)(F)F)cc3C(F)(F)F)cc2)cccc1[N+](=O)[O-] as well.
Reply: 235 to 236 °C

###

ASSAY_ENDPOINT: melting point

Recorded results for 4 compounds are shown here.
CCOC(=O)c1cn(C2CC2)c2c(OC)c(F)c(F)cc2c1=O = 178 to 180 °C
O=C(CC(CSC(=O)c1ccccc1)C(=O)O)c1ccc(Br)cc1 (stereo not given) = 133 to 135 °C
CNC(=O)c1ccccc1Nc1nc(Nc2ccc3c(c2)OCCN(C)C3=O)ncc1Cl = 288 to 289 °C
CCCC(C)c1nn(-c2ccc(C(F)(F)F)cn2)cc1CCCOc1c(C)cccc1CC(=O)O (stereo not given) = 147 to 148 °C

Turning to the following compound.
Query: Given the compound COc1ccc(C(=O)Oc2ccc(O)cc2)cc1C12CC3CC(CC(C3)C1)C2 , what is its reported melting point?
Reply: 236 to 237 °C

###

ASSAY_ENDPOINT: melting point

Recorded results for 3 compounds are shown here.
Clc1ccc2c(c1)NCc1ccccc1S2 = 125 to 127 °C
CCNc1cc(C(=O)O)cc(S(N)(=O)=O)c1Oc1ccccc1 = 236 to 237 °C
Nc1nc2c(s1)CC(NC(=O)[C@@H]1CCCN1C(=O)CNC(c1ccccc1)(c1ccccc1)c1ccccc1)CC2 (some centres undefined) = 125 to 128 °C

Turning to the following compound.
Query: Given the compound COC(=O)C(O)P(C)(C)=O (centres undefined) , what is its reported melting point?
Reply: 84 to 86 °C

###

In this section, each of the compounds is paired with its reported melting point.

COc1c(C)cnc(CS(=O)c2nc3ccccc3n2CCl)c1C (stereo unspecified) = 140 to 141 °C
COCCn1nc(-c2sc(N)nc2-c2ccccc2)ccc1=O = 208 to 210 °C
CCCc1nc(C(O)CCC)c(C(N)=O)n1Cc1ccc(-c2ccccc2C(=O)O)cc1 (stereo unspecified) = 118 to 121 °C
Cc1oc(-c2cc3ccccc3s2)nc1COc1ccc(CCCCn2cncn2)cc1 = 131 to 132 °C
CC(C)(C)Cn1c(=O)c(C#N)c(N2CCN(C(=O)c3cccs3)CC2)c2cccnc21 = 232 °C

Query: Given the compound CCOC(=O)C(=O)Nc1c([N+](=O)[O-])sc2cc(Cl)ccc12 , what is its reported melting point?
Reply: 139 to 141 °C

Query: Please do the same for NCc1cccc(C2CCN(c3nc4c(cc3F)c(=O)c(C(=O)O)cn4C3CC3)C2)c1 (stereo unspecified) as well.
Reply: 274 to 276 °C

Query: Please do the same for CCN(C(=O)c1ccc(Cn2cnc3ccccc32)cc1)C1CCCCC1 as well.
Reply: 118 to 119 °C

Query: Please do the same for Cc1nn(-c2ccccn2)c2ncc(C(=O)N(C)c3ccccc3)c(Cl)c12 as well.
Reply: 154 to 155 °C

Query: Please do the same for O=C(Oc1ccccc1)N1CCN(c2nn(S(=O)(=O)c3ccccc3)c3ccccc23)CC1 as well.
Reply: 112 to 114 °C

Query: Please do the same for CC(Cl)CCC(=O)Nc1c(C#N)cnn1-c1ccc(Cl)c(Cl)c1Cl (stereo unspecified) as well.
Reply: 126 to 127 °C

Query: Please do the same for CN1CCC(C2=C(C#N)C(c3cccc(C#N)c3Br)c3c[nH]nc3N2)CC1 (stereo unspecified) as well.
Reply: > 270 °C

Query: Please do the same for CS(=O)(=O)c1ccc(-c2cnn(CC(F)(F)F)c(=O)c2OC2CCCCC2)cc1 as well.
Reply: 129 to 130 °C

Query: Please do the same for Cc1c(Br)c(=O)n(C2CCCC2)c2nc(Nc3ccc(N4CCN(C(=O)OC(C)(C)C)CC4)cn3)ncc12 as well.
Reply: > 250 °C

Query: Please do the same for NNc1ccc(Cl)cn1 as well.
Reply: 116 to 122 °C

Query: Please do the same for C=CC(=O)Cc1ccc(-c2ccc(CC(=O)C=C)cc2)cc1 as well.
Reply: 61 to 62 °C

###

In this section, each of the molecules is paired with its reported melting point.

Recorded results for 5 molecules are shown here.
Cc1ccc(Sc2ncnc3ccccc23)cc1 = 96 °C
COc1ccnc(CSc2nc3c(C(F)(F)F)cccc3[nH]2)c1 = 146 °C
CCS(=O)(=O)N[C@H](C(=O)NCCc1ccc(OCc2ccccc2)c(OC)c1)C(C)C = 140 to 142 °C
CC(C)C(NC(=O)c1ccc(Cl)cc1)NC(=NC#N)Nc1cccnc1 (configuration not stated) = 182 to 184 °C
O=C(CCC(CSc1ccc2ccccc2c1)C(=O)O)OCc1ccccc1 (configuration not stated) = 94 to 95 °C

Turning to the following molecule.
Query: Given the molecule OC1(CNc2nc3ccccc3s2)CCN(CC2COc3ccccc3O2)CC1 (configuration not stated) , what is its reported melting point?
Reply: 176 °C

The values you see were collected from a melting point compilation (Tetko et al.; mined from patent text by program, amines drawn as free bases though some values may be those of a salt).
